Documented Ratio* across a set of molecules
- System: UV4 cells
- measurement-description: Activation by E. coli nitroreductase 2 (NR2): growth inhibition of UV4 cells with purified enzyme and NADH added
- Assay type: cell-based
- assay-conditions: IC50 drug alone/IC50 drug + NADH + NR2; intra-experiment ratios; 1080 min
Please reply with the value in numeric form only.

The reported value for CCCC(=O)Nc1cc(/C=C/C(=O)N2CC(CCl)c3ccc(N)cc32)n(C)c1 (stereo not shown) in terms of Ratio* is 1.1

The reported value for CC(=O)Nc1cccc(/C=C/C(=O)N2CC(CCl)c3ccc([N+](=O)[O-])cc32)c1 (stereo not shown) in terms of Ratio* is 3.5

The reported value for CCCC(=O)Nc1cc(/C=C/C(=O)N2CC(CCl)c3ccc([N+](=O)[O-])cc32)n(C)c1 (stereo not shown) in terms of Ratio* is 70

---

- System: UV4 cells
- measurement-description: Growth inhibition (cytotoxicity) of UV4 cells, 18 h drug exposure, methylene blue staining
- Format: cell-based
- assay-conditions: Cricetulus griseus, 18 h exposure, then 78 h further incubation, average ± SEM where multiple determinations, read-out: IC50 (nM) drug alone
Documented IC50 across a set of molecules

Please review the entries below; each comes with its answer.
molecule	IC50
CCCC(=O)Nc1cc(/C=C/C(=O)N2CC(CCl)c3ccc(N)cc32)n(C)c1 (stereo not shown)	38 nM
Cn1cccc1C(=O)Nc1cccc(/C=C/C(=O)N2CC(CCl)c3ccc([N+](=O)[O-])cc32)c1 (stereo not shown)	~5000 nM
CC(=O)Nc1cccc(/C=C/C(=O)N2CC(CCl)c3ccc([N+](=O)[O-])cc32)c1 (stereo not shown)	335 nM

Attention now shifts to the item below.
The reported value for CCCC(=O)Nc1cc(/C=C/C(=O)N2CC(CCl)c3ccc([N+](=O)[O-])cc32)n(C)c1 (stereo not shown) in terms of IC50 is 2940 nM
